Numbers sourced from patent US20240299376A1.

Test system: OCT-Ly7 (no NF-κB mut)
Assay: Anti-proliferative activity, DLBCL cell line panel
Assay type: cell-based
Settings: 192 h; antiproliferation after 8 days of treatment
parameterMeasured: IC50

Query block: # query: IC50 of entry O=C(Nc1ccnc(C(F)(F)F)c1)c1cnn(-c2cccc3c(=O)[nH]ccc23)c1C(F)(F)F
Result block: > 10 µM

----------
Experiment: Preliminary food effect assessment at steady state
Type: in vivo, human
Settings: human, plasma, oral, 200 mg, 4 × 50 mg, fasted condition, steady state; N = 1; read-out: Tmax
parameterMeasured: Tmax

Query block: # query: Tmax of entry O=C(Nc1ccnc(C(F)(F)F)c1)c1cnn(-c2cccc3c(=O)[nH]ccc23)c1C(F)(F)F [Compound A]
Result block: 1 h

----------
Assay: FIH study 67856633LYM1001 plasma pharmacokinetics
Format: in vivo, human
Conditions: human, plasma, oral, 200 mg, Cycle 1 Day 1, 200 mg capsule, cohort 200 mg; mean; read-out: Cmax
parameterMeasured: Cmax (ng/mL)
Reply with just the number (in ng/mL).

Query block: # query: Cmax of entry O=C(Nc1ccnc(C(F)(F)F)c1)c1cnn(-c2cccc3c(=O)[nH]ccc23)c1C(F)(F)F
Result block: 4060

----------
Experiment: Serum and tumor levels after multiple oral doses in male OCI-LY3 tumor-bearing NSG mice
Assay type: in vivo
Conditions: male, NSG, mouse, tumor, oral, 30 mg/kg, 30 mg/kg twice daily PO, Day 5 eight doses given, 12 h post dose; mean (SD); read-out: Tumor concentration
parameterMeasured: concentration at 12 h (ng/g)
Reply with just the number (in ng/g).

Query block: # query: concentration at 12 h of entry O=C(Nc1ccnc(C(F)(F)F)c1)c1cnn(-c2cccc3c(=O)[nH]ccc23)c1C(F)(F)F [Compound A]
Result block: 5050

----------
Assay: 14-day oral toxicity study toxicokinetics in Sprague-Dawley rats
Format: in vivo
Conditions: male, rat, plasma, 1000 mg/kg/day, male (4M), Day 13, 1,000 mg/kg/day, range
parameterMeasured: Tmax

Query block: # query: Tmax of entry O=C(Nc1ccnc(C(F)(F)F)c1)c1cnn(-c2cccc3c(=O)[nH]ccc23)c1C(F)(F)F
Result block: 2 to 4 h

----------
Experiment: Single IV dose plasma PK
Format: in vivo, dog
Conditions: male, plasma; Dog, beagle, 3M, 1 mg/kg IV in 70% PEG400; mean
parameterMeasured: clearance (mL/min/kg)
Reply with just the number (in mL/min/kg).

Query block: # query: clearance of entry O=C(Nc1ccnc(C(F)(F)F)c1)c1cnn(-c2cccc3c(=O)[nH]ccc23)c1C(F)(F)F [Compound A]
Result block: 0.772

----------
Test: FIH study 67856633LYM1001 plasma pharmacokinetics
Type: in vivo, human
Conditions: human, plasma, oral, 300 mg, Cycle 2 Day 1, 50 mg capsule, cohort 6 × 50 mg (300 mg QD); mean; read-out: AUCτ
parameterMeasured: AUC

Query block: # query: AUC of entry O=C(Nc1ccnc(C(F)(F)F)c1)c1cnn(-c2cccc3c(=O)[nH]ccc23)c1C(F)(F)F [Compound A]
Result block: ~1140 µg·h/mL

----------
Test: Single IV dose plasma PK
Format: in vivo, dog
Conditions: male, plasma; Dog, beagle, 3M, 1 mg/kg IV in 70% PEG400; mean
parameterMeasured: C0 (ng/mL)
Reply with just the number (in ng/mL).

Query block: # query: C0 of entry O=C(Nc1ccnc(C(F)(F)F)c1)c1cnn(-c2cccc3c(=O)[nH]ccc23)c1C(F)(F)F
Result block: 2070
